- protocol-text: Absorption spectra of dye-containing processed films (λmax), C-41 process
- Format: physicochemical
- details: Table IV, Example 5; coupler:S1 1:0.5
outcome-measure: λmax(nm) (+-0.5)
# number then unit; no other words

Query: # input compound: CCCCCCCCCCCCOC(=O)c1ccc(NC2=NN(c3c(Cl)cc(C#N)cc3Cl)C(=O)C2Sc2cc(C(C)(C)CC(C)(C)C)ccc2OCCCC)c(Cl)c1 (stereo not shown) ; wanted: its λmax(nm) (+-0.5)
Response: 548.5 nm

Query: Entry under review: CCCCCCCCCCCCS(=O)(=O)c1ccc(NC2=NN(c3c(Cl)cc(S(=O)(=O)N4CCOCC4)cc3Cl)C(=O)C2Sc2cc(C(C)(C)CC(C)(C)C)ccc2OCCCC)c(Cl)c1 (stereo not shown) . Reported λmax(nm) (+-0.5)?
Response: 551.0 nm

Query: Param item = CCCCCCCCCCCCOC(=O)c1ccc(NC2=NN(c3c(Cl)cc(S(C)(=O)=O)cc3Cl)C(=O)C2Sc2cc(C(C)(C)CC(C)(C)C)ccc2OCCCC)c(Cl)c1 (stereo not shown) ; retrieve measured λmax(nm) (+-0.5).
Response: 548.5 nm

Query: Dear colleague, I am looking for the recorded λmax(nm) (+-0.5) of the following compound: CCCCCCCCCCCCS(=O)(=O)c1ccc(NC2=NN(c3c(Cl)cc(C#N)cc3Cl)C(=O)C2Sc2cc(C(C)(C)CC(C)(C)C)ccc2OCCCC)c(Cl)c1 (stereo not shown)
Response: 551.0 nm

Query: Looking for the measured λmax(nm) (+-0.5) of CCCCCCCCCCCCOC(=O)c1ccc(NC2=NN(c3c(Cl)cc(S(=O)(=O)N4CCOCC4)cc3Cl)C(=O)C2Sc2cc(C(C)(C)CC(C)(C)C)ccc2OCCCC)c(Cl)c1 (stereo not shown) , can you help?
Response: 548.5 nm

Query: Entry CCCCCCCCCCCCS(=O)(=O)c1ccc(NC2=NN(c3c(Cl)cc(S(C)(=O)=O)cc3Cl)C(=O)C2Sc2cc(C(C)(C)CC(C)(C)C)ccc2OCCCC)c(Cl)c1 (stereo not shown) : reported λmax(nm) (+-0.5) = ?
Response: 551.0 nm

Query: Field request: λmax(nm) (+-0.5) | item: CCC(C)(C)c1ccc(OCC(=O)Nc2cccc(C(=O)NC3=NN(c4c(Cl)cc(Cl)cc4Cl)C(=O)C3)c2)c(C(C)(C)CC)c1 [Coupler B8, reference compound]
Response: 553.0 nm

###

- protocol-text: Absorption spectra of dye-containing processed films (λmax), C-41 process
- Assay type: physicochemical
- details: Table I, Example 2; coupler:S1 1:0.5
outcome-measure: λmax(nm) (+-0.5)

Query: What measured λmax(nm) (+-0.5) goes with CCCCCCCCCCCCNS(=O)(=O)c1ccc(NC2=NN(c3c(Cl)cc(OC)cc3Cl)C(=O)C2Sc2cc(C(C)(C)CC(C)(C)C)ccc2OCCCC)c(Cl)c1 (stereo not shown) [Coupler B1, reference compound] ?
Response: 539.5 nm

Query: Which λmax(nm) (+-0.5) value is on record for CCCCCCCCCCCCNS(=O)(=O)c1ccc(NC2=NN(c3c(Cl)cc(Cl)cc3Cl)C(=O)C2Sc2cc(C(C)(C)CC(C)(C)C)ccc2OCCCC)c(Cl)c1 (stereo not shown) [Coupler B3, reference compound] ?
Response: 546.0 nm

Query: λmax(nm) (+-0.5) lookup needed for CCCCCCCCCCCCNS(=O)(=O)c1ccc(NC2=NN(c3c(Cl)cc(S(=O)(=O)N4CCOCC4)cc3Cl)C(=O)C2Sc2ccccc2N(CCCCCCCCCCCC)C(=O)C(C)(C)C)c(Cl)c1 (stereo not shown) , thanks.
Response: 551.0 nm

Query: Entry CCCCCCCCCCCCNS(=O)(=O)c1ccc(NC2=NN(c3c(Cl)cccc3Cl)C(=O)C2Sc2cc(C(C)(C)CC(C)(C)C)ccc2OCCCC)c(Cl)c1 (stereo not shown) [Coupler B2, reference compound] has what λmax(nm) (+-0.5)?
Response: 542.0 nm

Query: Tell me the measured λmax(nm) (+-0.5) of CCCCCCCCCCCCNS(=O)(=O)c1ccc(NC2=NN(c3c(Cl)cc(S(=O)(=O)N4CCOCC4)cc3Cl)C(=O)C2Sc2ccccc2N(C)C(=O)CCCCCCCCCCC)c(Cl)c1 (stereo not shown) , please.
Response: 551.5 nm

Query: What λmax(nm) (+-0.5) value was documented for this molecule, CCCCCCCCCCCCNS(=O)(=O)c1ccc(NC2=NN(c3c(Cl)cc(S(=O)(=O)N4CCOCC4)cc3Cl)C(=O)C2Sc2cc(C(C)(C)CC(C)(C)C)ccc2OCCCC)c(Cl)c1 (stereo not shown) ?
Response: 550.5 nm

Query: Would you mind telling me what λmax(nm) (+-0.5) value was observed for CCC(C)(C)c1ccc(OCC(=O)Nc2cccc(C(=O)NC3=NN(c4c(Cl)cc(Cl)cc4Cl)C(=O)C3)c2)c(C(C)(C)CC)c1 [Coupler B8, reference compound] ?
Response: 555.0 nm

The reported numbers originate from patent US5256528A.
